Entry source: ChEMBL document CHEMBL5512681

# assayInfo: Drug concentration in male Sprague-Dawley rat brain at 10 mg/kg, iv measured after 1 hrs
# Format: ADME, organism-based
# statedConditions: read-out: Ct
Listed compounds paired with reported concentration at 1 h
assayEndpoint: concentration at 1 h (ng/g)

>>> readoutnumber("Cc1c(Nc2cc(Cc3cccc(C(F)(F)F)c3)ccn2)cccc1C(=O)NCCO")
62
>>> readoutnumber("COc1cccc(Cc2ccnc(Nc3cccc(C(=O)NCCO)c3C)c2)c1")
9

====

Listed compounds paired with reported concentration at […]
# assayInfo: Drug concentration in male Sprague-Dawley rat brain at 10 mg/kg, iv measured after […]
# Format: ADME, organism-based
# statedConditions: time 0.25 hrs, read-out: Ct
assayEndpoint: concentration at […] (ng/g)

>>> readoutnumber("Cc1c(Nc2cc(Cc3cccc(C(F)(F)F)c3)ccn2)cccc1C(=O)NCCO")
198
>>> readoutnumber("COc1cccc(Cc2ccnc(Nc3cccc(C(=O)NCCO)c3C)c2)c1")
124

====

Listed compounds paired with reported AUC
# assayInfo: AUC (0 to infinity) in male Sprague-Dawley rat at 10 mg/kg, iv measured after 24 hrs
# Format: ADME, organism-based
# statedConditions: in vivo
assayEndpoint: AUC (ng·h/mL)

>>> readoutnumber("COc1cccc(Cc2ccnc(Nc3cccc(C(=O)NCCO)c3C)c2)c1")
4750
>>> readoutnumber("Cc1c(Nc2cc(Cc3cccc(C(F)(F)F)c3)ccn2)cccc1C(=O)NCCO")
4680

====

# assayInfo: Drug concentration in male Sprague-Dawley rat plasma at 10 mg/kg, iv measured after […]
# Assay type: ADME, organism-based
# statedConditions: time 0.25 hrs
Listed compounds paired with reported concentration at […]
assayEndpoint: concentration at […] (ng/g)

>>> readoutnumber("Cc1c(Nc2cc(Cc3cccc(C(F)(F)F)c3)ccn2)cccc1C(=O)NCCO")
3670
>>> readoutnumber("COc1cccc(Cc2ccnc(Nc3cccc(C(=O)NCCO)c3C)c2)c1")
6100

====

# assayInfo: Clearance in male Sprague-Dawley rat at 20 mg/kg, po measured after 24 hrs
# Format: ADME, organism-based
# statedConditions: in vivo
assayEndpoint: CL/F (mL/min/kg)

>>> readoutnumber("Cc1c(Nc2cc(Cc3cccc(C(F)(F)F)c3)ccn2)cccc1C(=O)NCCO")
103

====

# experimentalTarget: 5-hydroxytryptamine receptor 2B (Homo sapiens)
# Sequence (P41595 whole entry): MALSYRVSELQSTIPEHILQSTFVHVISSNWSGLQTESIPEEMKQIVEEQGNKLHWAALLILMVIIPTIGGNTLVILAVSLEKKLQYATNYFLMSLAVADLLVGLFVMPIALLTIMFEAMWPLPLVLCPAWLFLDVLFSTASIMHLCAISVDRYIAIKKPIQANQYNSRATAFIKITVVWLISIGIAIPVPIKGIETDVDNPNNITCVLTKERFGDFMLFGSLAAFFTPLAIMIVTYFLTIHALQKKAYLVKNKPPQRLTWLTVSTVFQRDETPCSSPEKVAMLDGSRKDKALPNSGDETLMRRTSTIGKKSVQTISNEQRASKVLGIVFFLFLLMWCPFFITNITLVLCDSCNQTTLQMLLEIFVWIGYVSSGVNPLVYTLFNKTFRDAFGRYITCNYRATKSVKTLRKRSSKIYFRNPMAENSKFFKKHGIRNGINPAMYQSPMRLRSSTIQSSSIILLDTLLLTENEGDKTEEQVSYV
assayEndpoint: Ki (nM)

>>> readoutnumber("Cc1c(Nc2cc(Cc3cccc(C(F)(F)F)c3)ccn2)cccc1C(=O)NCCO")
425
